Origin of the recorded values: ChEMBL document CHEMBL3433997

Biological target: Solute carrier family 2, facilitated glucose transporter member 1 (Homo sapiens)
Assay: ST_JUDE_LEISH: Cytotoxicity at 2uM final concentration against transgenic Leishmania Mexicana promastigotes LmGLUT1 that are glucose transport deficient and complemented with the human glucose transporter GLUT1. Activity is measured by DNA content using SYBR green in vitro
Type: functional
VALUE TYPE: inhibition (%)
// note: answer is a bare numeric in %

* COc1ccc(-c2ccc(NC(=O)c3ccc(C#N)cc3)cc2)cc1CN1CCC(O)CC1 | -0.1
* O=C(Nc1ccc(C(=O)Oc2cccc3ccccc23)cc1)N[C@@H](Cc1ccc(O)cc1)C(=O)NC1CCN(Cc2ccc(O)cc2)C1 (some centres undefined) | 20.6
* COc1ccc(CNC2CCN(C)CC2)cc1-c1ccc(S(=O)(=O)NCc2ccccc2)s1 | 9.42

### Prompt Input "c1ccc(CCNCc2ccc(-c3ccc(CNc4ccc5ncccc5c4)cc3)cc2)cc1" , output reported inhibition.
### Response 9.9

### Prompt Tell me inhibition reported for "CCc1cn2c3c(cc(C(=O)N[C@@H](Cc4ccccc4)[C@H](O)CNC4CCCCC4)cc13)N(C)S(=O)(=O)C2"
### Response 2.09

### Prompt Answer with the recorded inhibition of CCOc1ccccc1NC(=O)C(Sc1nc(C)cc(C)c1C#N)c1ccccc1 (centres undefined) only.
### Response 6.11

### Prompt Please report the measured inhibition for "O=C(Nc1cccc(OC2CCN(Cc3ccccc3)CC2)c1)Nc1cccc([N+](=O)[O-])c1"
### Response 3.41

### Prompt Consider the compound O=C(Cc1ccccc1)NC(c1ccco1)c1cc(Cl)c2cccnc2c1O (centres undefined) . State its measured inhibition.
### Response -0.34

### Prompt Give the measured inhibition for "CC(C)C[C@@H](C(=O)N[C@@H](CCCCNC(=O)OCc1ccccc1)C(=O)Nc1nccs1)[C@H](C)N(O)C=O"
### Response 3.19

### Prompt Supply inhibition value. Item: "CNC(=O)CC(=O)NCCc1ccc(Cl)cc1"
### Response -0.63

### Prompt // fetch inhibition given entry N#Cc1cccc(NC(=O)c2cccc(S(=O)(=O)NC3CCN(CC4CCCCC4)C3)c2)c1 (centres undefined)
### Response 0.54
